B1: MATN2 (parent)
chain: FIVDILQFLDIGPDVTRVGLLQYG

Variants of: B1
Experiment: protein stability index of a GFP-peptide fusion (GPS, HEK-293T) (PSI 1-6); higher = more stable;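 also: lentivirally expressed fusions sorted by FACS into six bins by GFP to DsRed ratio, PSI derived from sequencing read proportions per bin multiplied by bin number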
Conditions: c terminus: a fixed tail appended
Kind request: treat 3 as inclusive, so protein stability index at 3 or higher is Satisfied, anything lower is Not satisfied.

• V3D = Satisfied
• R17L = Satisfied
• V18R = Not satisfied
• L21G = Satisfied
• D14S = Not satisfied
• D14E = Satisfied
• F1K = Not satisfied
• I11Q = Not satisfied
• G12C = Not satisfied
• F8S = Not satisfied
• I11T = Not satisfied
• V15M = Satisfied
• D4H = Satisfied
• I2L = Not satisfied
• Q7T = Satisfied
